target.desc: GABA-A receptor; alpha-1/beta-2/gamma-2 (Homo sapiens, UniProt P14867+P18507+P47870)
Sequence (P14867 whole entry): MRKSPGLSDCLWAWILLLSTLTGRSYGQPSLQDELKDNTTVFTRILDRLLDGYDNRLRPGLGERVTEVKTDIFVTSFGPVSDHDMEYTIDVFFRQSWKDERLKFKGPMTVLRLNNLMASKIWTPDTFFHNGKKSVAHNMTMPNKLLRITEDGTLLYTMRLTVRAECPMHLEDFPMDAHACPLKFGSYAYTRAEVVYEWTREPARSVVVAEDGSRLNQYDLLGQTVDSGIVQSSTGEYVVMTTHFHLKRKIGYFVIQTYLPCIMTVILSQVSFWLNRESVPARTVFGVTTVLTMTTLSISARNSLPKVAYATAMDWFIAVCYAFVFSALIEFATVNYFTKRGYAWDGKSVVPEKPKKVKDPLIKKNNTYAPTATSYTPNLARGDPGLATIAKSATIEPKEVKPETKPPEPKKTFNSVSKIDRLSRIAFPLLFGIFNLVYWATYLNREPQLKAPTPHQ
Sequence (P47870 whole entry): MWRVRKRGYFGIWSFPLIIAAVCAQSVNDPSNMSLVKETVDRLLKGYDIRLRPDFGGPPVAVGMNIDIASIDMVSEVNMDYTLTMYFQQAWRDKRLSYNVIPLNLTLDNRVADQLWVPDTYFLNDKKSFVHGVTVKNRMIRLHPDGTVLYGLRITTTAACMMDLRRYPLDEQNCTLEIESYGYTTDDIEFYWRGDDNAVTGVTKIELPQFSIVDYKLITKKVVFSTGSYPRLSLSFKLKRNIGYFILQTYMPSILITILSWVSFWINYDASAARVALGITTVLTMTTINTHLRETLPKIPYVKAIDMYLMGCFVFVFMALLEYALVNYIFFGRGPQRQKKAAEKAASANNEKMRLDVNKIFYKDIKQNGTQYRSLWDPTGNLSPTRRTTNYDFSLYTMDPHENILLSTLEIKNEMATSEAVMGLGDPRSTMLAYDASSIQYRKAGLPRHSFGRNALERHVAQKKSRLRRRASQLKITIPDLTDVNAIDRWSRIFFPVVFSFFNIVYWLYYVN
Sequence (P18507 whole entry): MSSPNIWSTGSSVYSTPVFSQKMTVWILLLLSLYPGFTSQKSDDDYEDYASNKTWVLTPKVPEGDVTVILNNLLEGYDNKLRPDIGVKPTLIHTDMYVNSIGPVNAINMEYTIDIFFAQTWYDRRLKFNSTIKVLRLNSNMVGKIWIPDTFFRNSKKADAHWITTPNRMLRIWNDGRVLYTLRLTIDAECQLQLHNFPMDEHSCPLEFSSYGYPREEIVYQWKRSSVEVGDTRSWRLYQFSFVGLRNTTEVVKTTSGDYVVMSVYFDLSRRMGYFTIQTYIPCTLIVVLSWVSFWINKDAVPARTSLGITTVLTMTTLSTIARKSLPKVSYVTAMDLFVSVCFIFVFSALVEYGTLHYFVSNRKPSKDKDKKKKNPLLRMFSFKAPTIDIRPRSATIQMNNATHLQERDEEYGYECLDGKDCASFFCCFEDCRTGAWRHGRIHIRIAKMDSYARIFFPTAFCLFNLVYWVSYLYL
assay.procedure: Agonist activity at human GABAA alpha1beta2gamma2S receptor expressed in TSA201 cells after 1 min by FLIPR assay
Assay type: cell-based
Each entry below carries its recorded pEC50.
Please note pEC50 is a logarithmic value: minus log10 of concentration in mol/L. Answer with that number alone.

structure.notation | pEC50
NCc1cc(O)no1 | 6.27
NCc1cnn(O)c1 | 4.89
NCc1cnn(O)c1Cl | 4.54

// switching to the query compound
Task: I am curious: what pEC50 value has been reported for `Oc1noc2c1CCNC2` ?
Output: 4.85
